# Test system: 454973-116-R2-J3-PDC spheroids, viability, % test/control
# protocol: Anticancer human tumor 454973-116-R2-J3-PDC patient-derived pancreatic carcinoma cell line growth inhibition [GQUAD]
# measurement.parameters: compound alone; run of 04/22/2024; spheroids with HUVEC and MSC
pIC50: −log10 of the molar value.
endpoint.name: pIC50

> print(dat)
                           substance.smiles                              assay.system  result
1  Cc1[nH]c2ccc(F)cc2c1-c1nc2c3cccnc3c3ncccc3c2[nH]1  454973-116-R2-J3-PDC spheroids, viability, % test/control  < 5.00

Exercise: If you can, please state the reported pIC50 value of CN(C)c1ccc(Nc2c3ccc(NC(=O)CCN4CCCC4)cc3nc3cc(NC(=O)CCN4CCCC4)ccc23)cc1 .
Solution: < 5.00

----------
Recorded viability, T/C for the following compounds
# System: 454973-116-R2-J3-PDC spheroids, viability, % test/control
# protocol: Anticancer human tumor 454973-116-R2-J3-PDC cell line growth inhibition [GQUAD];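 also: spheroids exposed to compounds for seven days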;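 as to viability, T/C: 100% = DMSO vehicle control viability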
# measurement.parameters: second compound 0.316 µM; first compound 1 µM; stronger effect = lower value; spheroids with HUVEC and MSC
// units = %; emit number, no label

Exercise: Reported viability, T/C for 454973-116-R2-J3-PDC spheroids, viability, % test/control, given O=C(NO)c1cnc(N2CCN(S(=O)(=O)c3ccc4ccccc4c3)CC2)nc1 + Cc1cnc(CNC(=O)c2c(=O)c3ccc(N4CCCN(C)CC4)nc3n3c2sc2ccccc23)cn1 ?
Solution: 0.34

Exercise: Recorded viability, T/C for CC1COCCN1c1cc(C2(O)CC3CCC(C2)O3)c2cnn(-c3ccn[nH]3)c2n1 (stereo unspecified) + Cc1[nH]c2ccc(F)cc2c1-c1nc2c3cccnc3c3ncccc3c2[nH]1 with 454973-116-R2-J3-PDC spheroids, viability, % test/control, please?
Solution: 20

Exercise: Under 454973-116-R2-J3-PDC spheroids, viability, % test/control: viability, T/C value of CC1COCCN1c1cc(-c2ccnn2C)c2ccnc(-c3ccn[nH]3)c2n1 (stereo unspecified) + CN(C)c1ccc(Nc2c3ccc(NC(=O)CCN4CCCC4)cc3nc3cc(NC(=O)CCN4CCCC4)ccc23)cc1 ?
Solution: 21.3

Exercise: Recorded viability, T/C for Cc1cccc(N(C)C(=O)C2C(O)CCN2c2nc(C)cc(C(F)(F)F)c2C#N)c1 (stereo unspecified) + Cc1[nH]c2ccc(F)cc2c1-c1nc2c3cccnc3c3ncccc3c2[nH]1 with 454973-116-R2-J3-PDC spheroids, viability, % test/control, please?
Solution: 101

Exercise: # value lookup — system 454973-116-R2-J3-PDC spheroids, viability, % test/control, readout viability, T/C, item CC(C)(O)C1CCC(Nc2ccc3ncc(-c4cccc(C(F)(F)F)c4)n3n2)CC1 (stereo unspecified) + Cc1[nH]c2ccc(F)cc2c1-c1nc2c3cccnc3c3ncccc3c2[nH]1
Solution: 78.4

Exercise: Entry C#Cc1c(F)ccc2cc(O)cc(-c3ncc4c(N5CC6CCC(C5)N6)nc(OCC56CCCN5CC(F)C6)nc4c3F)c12 (stereo unspecified) + CN(C)c1ccc(Nc2c3ccc(NC(=O)CCN4CCCC4)cc3nc3cc(NC(=O)CCN4CCCC4)ccc23)cc1 , system 454973-116-R2-J3-PDC spheroids, viability, % test/control: what viability, T/C was measured?
Solution: 21.4

Exercise: 454973-116-R2-J3-PDC spheroids, viability, % test/control / viability, T/C / CC(C)n1c(=O)n(C)c2cnc3cc(F)c(-c4ccc(OCCCN5CCCCC5)nc4)cc3c21 + Cc1[nH]c2ccc(F)cc2c1-c1nc2c3cccnc3c3ncccc3c2[nH]1 : value?
Solution: 117

Exercise: Request body: readout viability, T/C, system 454973-116-R2-J3-PDC spheroids, viability, % test/control, query CC(=O)O[C@H]1C(=O)[C@@]2(C)[C@H]([C@H](OC(=O)c3ccccc3)[C@]3(O)C[C@H](OC(=O)[C@H](O)[C@@H](NC(=O)c4ccccc4)c4ccccc4)C(C)=C1C3(C)C)[C@]1(OC(C)=O)CO[C@@H]1C[C@@H]2O + Cc1[nH]c2ccc(F)cc2c1-c1nc2c3cccnc3c3ncccc3c2[nH]1 . Return the value.
Solution: 5.86

Exercise: Look up viability, T/C with 454973-116-R2-J3-PDC spheroids, viability, % test/control for this compound: CCCS(=O)(=O)Nc1ccc(F)c(C(=O)c2c[nH]c3ncc(-c4ccc(Cl)cc4)cc23)c1F + Cc1cnc(CNC(=O)c2c(=O)c3ccc(N4CCCN(C)CC4)nc3n3c2sc2ccccc23)cn1
Solution: 96

Exercise: Find viability, T/C (454973-116-R2-J3-PDC spheroids, viability, % test/control) for the entry CC(C)(O)C1CCC(Nc2ccc3ncc(-c4cccc(C(F)(F)F)c4)n3n2)CC1 (stereo unspecified) + Cc1cnc(CNC(=O)c2c(=O)c3ccc(N4CCCN(C)CC4)nc3n3c2sc2ccccc23)cn1
Solution: 64.3

Exercise: What value of viability, T/C on 454973-116-R2-J3-PDC spheroids, viability, % test/control does COc1ccc([C@@H](O)c2cc(-c3ncnc4cc(N5CCOCC5)ccc34)c(F)cc2Cl)nn1 + Cc1[nH]c2ccc(F)cc2c1-c1nc2c3cccnc3c3ncccc3c2[nH]1 have?
Solution: 91.5

----------
# Test system: 454973-116-R2-J3-PDC spheroids, viability, % test/control
# protocol: Anticancer human tumor 454973-116-R2-J3-PDC cell line growth inhibition [GQUAD];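 also: spheroids exposed to compounds for seven days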;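 as to viability, T/C: 100% = DMSO vehicle control viability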
# measurement.parameters: second compound 1 µM; first compound 0.0999 µM; stronger effect = lower value; spheroids with HUVEC and MSC
endpoint.name: viability, T/C (%)
Number only, in %; omit the unit.

Examples from the recorded data:
compound	viability, T/C, %
CCc1c2c(nc3ccc(O)cc13)-c1cc3c(c(=O)n1C2)COC(=O)[C@]3(O)CC + Cc1[nH]c2ccc(F)cc2c1-c1nc2c3cccnc3c3ncccc3c2[nH]1	7.87
CCc1c2c(nc3ccc(O)cc13)-c1cc3c(c(=O)n1C2)COC(=O)[C@]3(O)CC + Cc1cnc(CNC(=O)c2c(=O)c3ccc(N4CCCN(C)CC4)nc3n3c2sc2ccccc23)cn1	7.17
CCc1c2c(nc3ccc(O)cc13)-c1cc3c(c(=O)n1C2)COC(=O)[C@]3(O)CC + CN(C)c1ccc(Nc2c3ccc(NC(=O)CCN4CCCC4)cc3nc3cc(NC(=O)CCN4CCCC4)ccc23)cc1	8.79

Exercise: viability, T/C for Cn1ncnc1[C@H]1c2n[nH]c(=O)c3cc(F)cc(c23)N[C@@H]1c1ccc(F)cc1 + CN(C)c1ccc(Nc2c3ccc(NC(=O)CCN4CCCC4)cc3nc3cc(NC(=O)CCN4CCCC4)ccc23)cc1 ?
Solution: 79.8

Exercise: What value of viability, T/C has been reported for the following compound? CC[C@@]1(O)C(=O)OCc2c1cc1n(c2=O)Cc2cc3c(CN(C)C)c(O)ccc3nc2-1 + Cc1[nH]c2ccc(F)cc2c1-c1nc2c3cccnc3c3ncccc3c2[nH]1
Solution: 19.6

Exercise: Could you share which viability, T/C value was measured for CC[C@@]1(O)C(=O)OCc2c1cc1n(c2=O)Cc2cc3c(CN(C)C)c(O)ccc3nc2-1 + Cc1cnc(CNC(=O)c2c(=O)c3ccc(N4CCCN(C)CC4)nc3n3c2sc2ccccc23)cn1 ?
Solution: 50

Exercise: Quick one: viability, T/C for Cc1[nH]c2ccccc2c1CCNCc1ccc(/C=C/C(=O)NO)cc1 + CN(C)c1ccc(Nc2c3ccc(NC(=O)CCN4CCCC4)cc3nc3cc(NC(=O)CCN4CCCC4)ccc23)cc1 ?
Solution: 24.5

Exercise: Any idea what its viability, T/C is? The compound is Cn1ncnc1[C@H]1c2n[nH]c(=O)c3cc(F)cc(c23)N[C@@H]1c1ccc(F)cc1 + Cc1[nH]c2ccc(F)cc2c1-c1nc2c3cccnc3c3ncccc3c2[nH]1
Solution: 83.5

Exercise: Recorded viability, T/C for CC[C@@]1(O)C(=O)OCc2c1cc1n(c2=O)Cc2cc3c(CN(C)C)c(O)ccc3nc2-1 + CN(C)c1ccc(Nc2c3ccc(NC(=O)CCN4CCCC4)cc3nc3cc(NC(=O)CCN4CCCC4)ccc23)cc1 , please?
Solution: 20.3

Exercise: For the compound shown here, Cc1[nH]c2ccccc2c1CCNCc1ccc(/C=C/C(=O)NO)cc1 + Cc1[nH]c2ccc(F)cc2c1-c1nc2c3cccnc3c3ncccc3c2[nH]1 , give the reported viability, T/C.
Solution: 35.3

Exercise: Recorded viability, T/C of Cn1ncnc1[C@H]1c2n[nH]c(=O)c3cc(F)cc(c23)N[C@@H]1c1ccc(F)cc1 + Cc1cnc(CNC(=O)c2c(=O)c3ccc(N4CCCN(C)CC4)nc3n3c2sc2ccccc23)cn1 , please.
Solution: 56.3

Exercise: Reported viability, T/C for Cc1[nH]c2ccccc2c1CCNCc1ccc(/C=C/C(=O)NO)cc1 + Cc1cnc(CNC(=O)c2c(=O)c3ccc(N4CCCN(C)CC4)nc3n3c2sc2ccccc23)cn1 : what is it?
Solution: 27.5

Value source: PubChem BioAssay AID2060508
